assay: Feasibility study on Form 1 (solubility in freeze-drying solvent mixtures); format: physicochemical; conditions: aqueous with cosolvent or surfactant or cyclodextrin, thermodynamic from solid; THF/Water (50/50); 25.1 mg in 1000 μL; not dissolved
property_label: solubility

Input: Item CCN1C(=O)CNc2ncc(-c3ccc(-c4nc[nH]n4)nc3C)nc21 [Form 1] has what recorded solubility?
Output: < 25 mg/mL

###

assay: Feasibility study on Form 1 (solubility in freeze-drying solvent mixtures); format: physicochemical; conditions: organic solvent or mixture, thermodynamic from solid; Ethanol/water (90/10); 24.2 mg in 400 μL; not dissolved
property_label: solubility

Input: Item CCN1C(=O)CNc2ncc(-c3ccc(-c4nc[nH]n4)nc3C)nc21 [Form 1] has what recorded solubility?
Output: < 60 mg/mL

###

experiment: Feasibility study on Form 1 (solubility in freeze-drying solvent mixtures); format: physicochemical; settings: organic solvent or mixture, thermodynamic from solid; TFE; 21.9 mg in 1000 μL; dissolved
property_label: solubility (mg/mL)
Respond numerically; units are mg/mL and should not be typed.

Input: Item CCN1C(=O)CNc2ncc(-c3ccc(-c4nc[nH]n4)nc3C)nc21 [Form 1] has what recorded solubility?
Output: 22

###

experiment: Feasibility study on Form 1 (solubility in freeze-drying solvent mixtures); assay type: physicochemical; conditions: organic solvent or mixture, thermodynamic from solid; TFE/water (90/10); 20.7 mg in 1000 μL; dissolved
property_label: solubility (mg/mL)
Respond numerically; units are mg/mL and should not be typed.

Input: Item CCN1C(=O)CNc2ncc(-c3ccc(-c4nc[nH]n4)nc3C)nc21 [Form 1] has what recorded solubility?
Output: 21

###

assay: Feasibility study on Form 1 (solubility in freeze-drying solvent mixtures); type: physicochemical; conditions: organic solvent or mixture, thermodynamic from solid; THF/water (90/10); 24.8 mg in 1000 μL; not dissolved
property_label: solubility

Input: Item CCN1C(=O)CNc2ncc(-c3ccc(-c4nc[nH]n4)nc3C)nc21 [Form 1] has what recorded solubility?
Output: < 25 mg/mL
